# experimentalTarget: T1, mouse IL-12Rβ2 expressed on cells (mouse, UniProt P97378 24-874)
# T1 construct: the cell lines are described by plasmid or cDNA number only; also called mIL-12RB2; HEK293T transiently transfected with mouse IL-12Rβ2
# T1 sequence: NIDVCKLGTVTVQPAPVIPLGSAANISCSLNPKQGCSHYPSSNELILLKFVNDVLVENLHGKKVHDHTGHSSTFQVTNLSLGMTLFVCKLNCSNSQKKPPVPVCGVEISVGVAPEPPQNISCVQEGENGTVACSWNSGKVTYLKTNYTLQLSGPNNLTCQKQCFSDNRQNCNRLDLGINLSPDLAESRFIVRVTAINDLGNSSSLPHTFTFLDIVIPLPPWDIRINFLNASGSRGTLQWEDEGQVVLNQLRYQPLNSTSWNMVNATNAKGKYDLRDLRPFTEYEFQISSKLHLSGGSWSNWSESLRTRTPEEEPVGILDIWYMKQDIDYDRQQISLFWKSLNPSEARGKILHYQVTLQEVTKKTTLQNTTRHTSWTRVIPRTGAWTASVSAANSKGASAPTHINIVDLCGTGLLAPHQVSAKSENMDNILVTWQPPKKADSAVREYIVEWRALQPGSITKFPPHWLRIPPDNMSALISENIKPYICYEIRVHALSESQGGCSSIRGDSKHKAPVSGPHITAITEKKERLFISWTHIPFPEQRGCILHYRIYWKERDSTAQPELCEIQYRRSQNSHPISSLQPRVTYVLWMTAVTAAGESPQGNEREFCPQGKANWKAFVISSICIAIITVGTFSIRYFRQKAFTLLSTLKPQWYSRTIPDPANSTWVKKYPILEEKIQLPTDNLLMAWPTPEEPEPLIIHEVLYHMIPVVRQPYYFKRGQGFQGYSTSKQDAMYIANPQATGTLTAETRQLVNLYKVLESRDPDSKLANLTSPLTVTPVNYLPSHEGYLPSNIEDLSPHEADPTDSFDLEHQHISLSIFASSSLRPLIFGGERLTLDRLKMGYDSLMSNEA
# assayRemarks: flow cytometry, periplasmic extract VHH-HA on HEK293T cells transiently expressing mouse IL-12Rβ2
// reported % cells bound per item
Dear colleague, please return just the value in %, with no unit written.

Worked set:
INSERT INTO assay_data (binder, valuekind, numericvalue) VALUES
  ('anti-IL-12Rβ2 VHH clone 3CRHM73 (clone ID 21060) (VHH, Tested as periplasmic extract; not shown: C-terminal HA tag) VHH: QVQLQESGGGLVQAGGSLSLSCAASGSAFRLNFMGWYRQAPGKQRELVAAINSGGTEIYHDSVKGRFTISRDNADSTVWLQMNSLKPDDTAVYYCAADRGISWSKLAGGMDYWGKGTQVTVSS', '% cells bound', 10.4),
  ('anti-IL-12Rβ2 VHH clone 3CAHM11 (clone ID 21050) (VHH, Tested as periplasmic extract; not shown: C-terminal HA tag) VHH: QVQLQESGGGLVQAGGSLRLSCAASGRTFNNYAMAWFRQAPGKEREFIAAITRSDTTLYIDSVKGRFTISRDNAKNTVALQMNSLKPEDTAVYYCAAGMPYSYSDYPRDSKYDYWGRGTQVTVSS', '% cells bound', 7.51),
  ('anti-IL-12Rβ2 VHH clone 3CRHM99 (clone ID 21062) (VHH, Tested as periplasmic extract; not shown: C-terminal HA tag) VHH: QVQLQESGGGLVQPGGSLRLSCAASGISSSRLHVGWFRQSPGKEREFVAAISLSGGTQAYTDSVKGRFTISGDNVKNTAYLQMNSLRPEDTAVYYCAARERFIWTWSDLTYDYWGQGTQVTVSS', '% cells bound', 10.7);

# input for lookup
Reported % cells bound, binder anti-IL-12Rβ2 VHH clone 3CRHM14 (clone ID 21053) (VHH, Tested as periplasmic extract; not shown: C-terminal HA tag) VHH: QVQLQESGGGLVQAGGSLRLSCAASGRTFSNYAMAWFRQAPGTEREFVAGLSGSGGDTEFYDDSVKGRFAISRDSAKNTVWLQMNSLKPEDTAVYYCAAATHVVVHYGLVRRRGTYDYWGQGTQVTVSS : ____
18.6
